Each item that follows carries a reported Neut IC50 (µg/ml) subtype A.
system: RSV F protein of subtype A (strain A2) on recombinant mKate-RSV virus (Respiratory syncytial virus subtype A …, UniProt P03420 26-574)
protocol: cell-based or functional assay
Please give a number only; it is taken to be in µg/mL.

Worked examples, 2 binders total:
>  <binder>
ADI-18968 (antibody, V domains shown, full-length IgG from yeast) VH: EVQLVESGPGLVKPSQTLSLTCTVSDVLISSGDYYWSWIRQSPGKGLEWLGYIYYTGKTKYNPSLESRITMSVDTSKNQFSLRLSSVTAADTAVYFCTRDLGYSTSSPSFYYGMDVWGQGTTVTVSS VL: EIVLTQSPATLSLSPGERATLSCRASQSVGTYLAWYQQKPGQAPRLLIYDASYRVTGIPARFSASGSATDFTLTISSLEPEDFAVYFCQQRTNWPITFGQGTRLEIK

>  <display.unit>
µg/mL

>  <Neut IC50 (µg/ml) subtype A>
0.909

$$$$
>  <binder>
ADI-18901 (antibody, V domains shown) VH: EVQLVESGAEVKRPGASVKISCKASEYAFTAHYLHWVRQAPDQGLEWMGWISPKSGGTNYAQKFHGRVSMTSDTSISTVYMELSSLTSDDTAVYYCARSSLVGASPNFDFWGQGTLVTVSS VL: QSVLTQPPSVSAAPGQRVTISCSGSSSNIGNNYVSWYQQLPGTTPKVLIYDNNQRPSGIPDRFSGSKSGTSATLAISGLQTGDEAVYYCGTWDASLSAAMVFGGGTKLTVL

>  <display.unit>
µg/mL

>  <Neut IC50 (µg/ml) subtype A>
5.65

$$$$

Report Neut IC50 (µg/ml) subtype A for ADI-18939 (antibody, V domains shown, full-length IgG from yeast; also called Antibody Number 292; Ab # 292) VH: QVQLQQWGAGLLKPSETLSLTCAVYGGSFSGYSWSWIRQSPGKGLEWIGEINHRGSTNYNPSLKSRVTISVDTSKNQFSLKLSSVTAADTAVYYCAGTNYGEVNTSNQYFFGMDVWGQGTTVTVSS VL: DIRLTQSPSSLSASVGDRVTITCRASQSITTYLNWYQQKPGKAPKLLIYAASNLESGVPSSFSGSGFGTDFTLTISSLQPDDFATYYCQQSYSAPLTFGGGTKVDIK please. 0.018
